TARGET ENTITY: human JAK3 (a.a. 781-1124) (Homo sapiens)
Construct: JAK3 (a.a. 781-1124); His tag (N); made in house; host or cells: insect cells (baculovirus)
Sequence (P52333 781-1124): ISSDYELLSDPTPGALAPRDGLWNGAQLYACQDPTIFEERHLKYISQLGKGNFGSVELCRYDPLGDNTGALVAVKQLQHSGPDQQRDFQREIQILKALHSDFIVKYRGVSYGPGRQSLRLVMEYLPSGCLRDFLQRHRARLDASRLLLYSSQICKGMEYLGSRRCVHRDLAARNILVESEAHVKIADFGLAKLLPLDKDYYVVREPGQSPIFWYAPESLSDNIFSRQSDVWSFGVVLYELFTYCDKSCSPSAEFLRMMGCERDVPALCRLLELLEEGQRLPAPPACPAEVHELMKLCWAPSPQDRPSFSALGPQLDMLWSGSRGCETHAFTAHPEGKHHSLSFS
ASSAY TEXT: In vitro JAK kinase assay (HTRF, phosphorylation of a biotinylated peptide), JAK3
Assay type: biochemical
MEASUREMENT SETUP: Table D1
Structures can show the parent of a compound that is named as a salt.
IC50 listing for selected compounds.

Example cases with answers are listed next.
Clc1cnc2nc1Nc1cccc(c1)CSCc1cccc(c1)N2 [Example D20, trifluoroacetate]; 0.088 µM
N#Cc1ccccc1S(=O)(=O)N1CCC(CCNc2ccc3cc2CCc2cncc(c2)Nc2ncc(Cl)c(n2)N3)CC1 [Example D222, tris(trifluoroacetate)]; > 0.4 µM

Kindly consider the entry below.
**Q:** Find the measured IC50 of Cc1cc(C(=O)N2CCC(CCNc3ccc4cc3CCc3cncc(c3)Nc3ncc(Cl)c(n3)N4)CC2)no1 [Example D218, tris(trifluoroacetate)] and report it.
**A:** > 0.4 µM
